Measured pIC50, listed per entry for reference.
Target: 5-HT2C edited (accession number AAF35842.1) (Homo sapiens, UniProt P28335, I156V/I160V/N158S)
Sequence (P28335 whole entry I156V/N158S/I160V, looked up): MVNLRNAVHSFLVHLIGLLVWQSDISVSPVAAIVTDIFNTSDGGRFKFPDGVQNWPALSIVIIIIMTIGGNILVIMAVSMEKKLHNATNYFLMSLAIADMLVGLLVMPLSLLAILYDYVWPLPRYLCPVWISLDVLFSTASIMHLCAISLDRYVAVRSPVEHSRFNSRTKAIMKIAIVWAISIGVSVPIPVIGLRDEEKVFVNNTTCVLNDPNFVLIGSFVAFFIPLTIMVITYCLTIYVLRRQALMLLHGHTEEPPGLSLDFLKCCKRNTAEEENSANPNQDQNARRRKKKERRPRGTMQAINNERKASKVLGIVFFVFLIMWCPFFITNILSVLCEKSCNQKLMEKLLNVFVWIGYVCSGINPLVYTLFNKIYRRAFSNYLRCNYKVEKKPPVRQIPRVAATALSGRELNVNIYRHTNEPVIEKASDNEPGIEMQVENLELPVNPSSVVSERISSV
Experiment: biochemical
pIC50: −log10 of the molar value.

- COc1ccc2c3c(n(C)c2n1)CCNCC3: 7.00 to 8.00
- COc1ccc2c3c([nH]c2n1)CCN(C1COC1)CC3: < 5.00
- COc1ccc2c3c(n(C)c2n1)CCN(C1COC1)CC3: 5.00 to 6.00
- Cn1c2c(c3ccc(Br)nc31)CCNCC2: 7.00 to 8.00
- CN1CCc2[nH]c3ncc(Cl)cc3c2CC1: 7.00 to 8.00

# input Dear colleague, please send me the reported pIC50 for `Brc1ccc2c3c([nH]c2n1)CCNCC3` when you can.
# output 7.00 to 8.00

# input Return reported pIC50. Input compound: `Cc1ccc2c3c(n(C)c2n1)CCNCC3`
# output 6.00 to 7.00

# input Report measured pIC50; entry is `Clc1cnc2[nH]c3c(c2c1)CCN(C1COC1)CC3`
# output 6.00 to 7.00

# input Consider the compound `CN1CCc2c(n(C)c3ncc(Cl)cc23)CC1` . State its measured pIC50.
# output 7.00 to 8.00

# input In one line, give reported pIC50 of the entry `COc1cc2c3c([nH]c2cn1)CCN(C)CC3` .
# output < 5.00

# input Give the reported pIC50 for this compound. `c1cnc2[nH]c3c(c2c1)CCN(C1COC1)CC3`
# output < 5.00
